tested on: Vero E6 infected with SARS-CoV-2; assay: inhibition of SARS-CoV-2 cytopathic effect; higher = more antiviral protection, active = above 15; settings: 100 nM; 48 h
Entries annotated with measured inhibition of SARS-CoV-2 cytopathic effect
REPORTED_ENDPOINT: inhibition of SARS-CoV-2 cytopathic effect

INSERT INTO measurements (molecule, observed_result) VALUES
  ('CN(C)C(=O)[C@H](O)[C@H](Cc1ccccc1)NC(=O)c1cc2cc(Cl)ccc2[nH]1', '-0.45% (inactive)'),
  ('CCOC(=O)C1=C(N)Oc2ccc(Br)cc2C1C(C#N)C(=O)OCC (stereo not drawn)', '0.47% (inactive)'),
  ('C/C=C(/C)C(=O)O[C@H]1C(C)=C[C@]23C(=O)[C@@H](C=C(CO)[C@@H](O)[C@]12O)[C@H]1[C@@H](C[C@H]3C)C1(C)C [ingenol-mebutate]', '-8.12% (inactive)'),
  ('N[C@H]1CCN(O)C1=O', '-0.065% (inactive)'),
  ('CC(C)OC(=O)[C@H](C)N[P@@](=O)(OC[C@H]1O[C@@H](n2ccc(=O)[nH]c2=O)[C@](C)(F)[C@@H]1O)Oc1ccccc1', '-2.61% (inactive)'),
  ('O=c1[nH]c2ccccc2n1C1CCN(CCOc2ccccc2)CC1 [oxiperomide]', '-2.1% (inactive)'),
  ('O=C(O)[C@H]1CC[C@H](c2cc3cccnc3c(-c3cccc(F)c3)n2)CC1', '-0.1% (inactive)'),
  ('CC(C)(C)C(=O)Oc1ccc(S(=O)(=O)Nc2ccccc2C(=O)NCC(=O)O)cc1 [sivelestat]', '0.61% (inactive)'),
  ('Cc1nn(C)c2c1C(c1ccc(C(F)(F)F)cc1)C(C#N)=C(N)O2 (stereo not drawn)', '-1.6% (inactive)'),
  ('CC(=O)O[C@@]12CO[C@@H]1C[C@H](O)[C@@]1(C)C(=O)[C@H](O)C3=C(C)[C@@H](O)C[C@@](O)([C@@H](OC(=O)c4ccccc4)[C@H]21)C3(C)C [10-deacetylbaccatin]', '-1.67% (inactive)'),
  ('Cc1cccc(N(C)C(=S)Oc2ccc3ccccc3c2)c1 [tolnaftate]', '-1.72% (inactive)'),
  ('C#CCN(C)[C@H](C)Cc1ccccc1 [selegiline]', '1.02% (inactive)'),
  ('CC(C)C(N)C(=O)O (stereo in doubt) [L-valine]', '0.64% (inactive)'),
  ('O=C(Nc1cccc(Nc2ncc(Br)c(NCCc3cnc[nH]3)n2)c1)N1CCCC1', '-1% (inactive)'),
  ('N=C(N)SCCc1ccc(OCc2ccc([N+](=O)[O-])cc2)cc1', '-0.47% (inactive)'),
  ('COc1ccc(CNC(=O)c2sc3nc(C)cc(C)c3c2N)cc1', '2.17% (inactive)'),
  ('CCCCOc1ccc(OCCCN2CCOCC2)cc1 [pramoxine]', '-1.18% (inactive)'),
  ('CC(=O)Nc1nnc(S(N)(=O)=O)s1 [acetazolamide]', '-1.3% (inactive)'),
  ('C[C@H](N)C(=O)N[C@@H](CCC(N)=O)C(=O)O [dipeptamin]', '-0.9% (inactive)'),
  ('NS(=O)(=O)NCc1csc2ccccc12', '-0.43% (inactive)'),
  ('CCc1nc(C)ccc1O [emoxipin]', '1.53% (inactive)'),
  ('CC1(C)C(=O)N(c2ccc(C#N)c(C(F)(F)F)c2)C(=O)N1CCCCO', '4.71% (inactive)'),
  ('CC[C@H](CC[C@@H](C)[C@H]1CC[C@H]2[C@@H]3CC=C4C[C@@H](O)CC[C@]4(C)[C@H]3CC[C@]12C)C(C)C [beta-Sitosterol]', '1.23% (inactive)');

Hello, the source for this data is the supplement of paper PMC13380429, in case you need it.
